# assayed-target: CD3 epsilon/delta heterodimer (Homo sapiens) (UniProt P07766+P04234)
# Sequence (P07766 23-126, stated change not applied, chain 1 of 2): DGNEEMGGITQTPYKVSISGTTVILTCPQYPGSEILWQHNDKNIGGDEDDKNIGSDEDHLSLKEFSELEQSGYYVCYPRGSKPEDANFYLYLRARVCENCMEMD
# Sequence (P04234 22-105, stated change not applied, chain 2 of 2): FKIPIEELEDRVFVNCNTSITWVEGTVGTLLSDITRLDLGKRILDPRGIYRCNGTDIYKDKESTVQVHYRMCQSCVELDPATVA
# measurement-description: SPR
# assay-setup: _ is abasic C3 spacer at positions 11 and 16; 5'-HEG; 3'-3' dT; kinetic
readout-label: Kd (nM)
# value in nM; strip the unit string

Which value of Kd has been reported for GGGTTTGGCACGGGCTGGC [CELTIC_core_42t] in the records? 0.275

====

# assayed-target: CD3 epsilon/delta heterodimer (Homo sapiens) (UniProt P07766+P04234)
# measurement-description: SPR
# assay-setup: _ is abasic C3 spacer at position 11; 5'-HEG; 3'-3' dT; kinetic
readout-label: pKd
pKd here is simply -log10 of the concentration when that concentration is written in mol/L.

Quick check: pKd of GGGTTTGGCACGGGCCTGGC [CELTIC_core_24t] ? 11.22

====

# assayed-target: CD3 epsilon/delta heterodimer (Homo sapiens) (UniProt P07766+P04234)
# measurement-description: SPR
# assay-setup: kinetic
readout-label: pKd
# log scale: pKd equals minus log10 of the concentration in mol/L

Which pKd value is on record for GGGNTTGGCNNNGGGNCTGGC [CELTIC_core] ? 9.00

====

# Test system: CD3 complex on Jurkat cells (Homo sapiens)
# measurement-description: flow
# assay-setup: apparent; negligible signal on Ramos
pKd: −log10 of the molar value.
readout-label: pKd

Look at this sequence and give its reported pKd. GGGNTTGGCNNNGGGNCTGGC [CELTIC_core] < 7.30

====

# assayed-target: CD3 epsilon/delta heterodimer (Mus musculus) (UniProt P22646+P04235)
# Sequence 1: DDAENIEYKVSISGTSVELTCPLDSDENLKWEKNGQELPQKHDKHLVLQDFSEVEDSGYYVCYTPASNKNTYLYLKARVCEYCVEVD
# Sequence 2: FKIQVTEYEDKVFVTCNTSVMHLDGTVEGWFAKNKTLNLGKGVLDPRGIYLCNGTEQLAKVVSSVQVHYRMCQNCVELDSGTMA
# measurement-description: SPR
# assay-setup: steady state
readout-label: pKd
// field semantics: pKd = negative decimal log of concentration (mol/L)

Query for CD3 epsilon/delta heterodimer (Mus musculus) (UniProt P22646+P04235): what pKd does the record show for GGGNTTGGCNNNGGGNCTGGC [CELTIC_core] ? 3.23

====

# assayed-target: CD3 epsilon/gamma heterodimer (Homo sapiens) (UniProt P07766+P09693)
# Sequence (P07766 23-126, chain 1 of 2): as the sequence (P07766 23-126, stated change not applied, chain 1 of 2) above
# Sequence (P09693 23-116, chain 2 of 2): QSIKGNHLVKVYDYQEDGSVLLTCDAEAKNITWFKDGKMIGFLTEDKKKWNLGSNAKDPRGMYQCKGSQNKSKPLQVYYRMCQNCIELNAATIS
# measurement-description: SPR
# assay-setup: _ is abasic C3 spacer at position 11; 5'-HEG; 3'-3' dT; steady state; kinetic 238 pM (Table 8)
readout-label: pKd
The quantity pKd is defined as the negative base-10 logarithm of the molar concentration.

Look up pKd for this sequence: GGGTTTGGCACGGGCCTGGC [CELTIC_core_24t] 6.63

====

# assayed-target: CD3 epsilon/gamma heterodimer (Homo sapiens) (UniProt P07766+P09693)
# measurement-description: SPR
# assay-setup: _ is abasic C3 spacer at position 11; 5'-HEG; steady state; kinetic 67 pM (Table 8)
readout-label: pKd
Scale note: pKd = -log10(concentration in M).

Entry GGGTTTGGCACGGGCCTGGC [CELTIC_core_24] : reported pKd = ? 6.66

====

# assayed-target: CD3 epsilon/gamma heterodimer (Homo sapiens) (UniProt P07766+P09693)
# measurement-description: SPR
# assay-setup: _ is abasic C3 spacer at position 16; 5'-HEG; steady state; kinetic 5.4 pM (Table 8)
readout-label: pKd
Field pKd (float): negative decimal logarithm of the concentration in molar.

What pKd appears in the records for this sequence with CD3 epsilon/gamma heterodimer (Homo sapiens) (UniProt P07766+P09693)? GGGTTTGGCATCGGGCTGGC [CELTIC_core_29] 6.69

====

# assayed-target: CD3 epsilon/gamma heterodimer (Homo sapiens) (UniProt P07766+P09693)
# measurement-description: SPR
# assay-setup: _ is abasic C3 spacer at positions 11 and 16; 5'-HEG; 3'-3' dT; steady state; kinetic 43 pM (Table 8)
readout-label: Kd (nM)
# output: bare number, implied unit nM

Which Kd reading was recorded for the sequence GGGTTTGGCACGGGCTGGC [CELTIC_core_42t] ? 176

====

# assayed-target: CD3 epsilon/delta heterodimer (Homo sapiens) (UniProt P07766+P04234)
# measurement-description: SPR
# assay-setup: _ is abasic C3 spacer at positions 11 and 16; 5'-HEG; kinetic
readout-label: pKd
Units for pKd: none; it is -log10 of a concentration expressed in mol/L.

Please give the measured pKd for this sequence: GGGTTTGGCACGGGCTGGC [CELTIC_core_42] 9.11

====

# assayed-target: CD3 epsilon/delta heterodimer (Homo sapiens) (UniProt P07766+P04234)
# measurement-description: SPR
# assay-setup: _ is abasic C3 spacer at position 11; 5'-HEG; kinetic
readout-label: pKd
// pKd is dimensionless: -log10 of concentration (M)

Which pKd is reported for this sequence? GGGTTTGGCACGGGCCTGGC [CELTIC_core_24] 10.39

====

# assayed-target: CD3 epsilon/delta heterodimer (Homo sapiens) (UniProt P07766+P04234)
# measurement-description: SPR
# assay-setup: _ is abasic C3 spacer at position 16; kinetic
readout-label: Kd (nM)
Enter your answer as a number in nM; do not include the unit.

// query Kd value for entry GGGTTTGGCACCGGGCTGGC [CELTIC_core_12] 1.5

====

# assayed-target: CD3 epsilon/gamma heterodimer (Homo sapiens) (UniProt P07766+P09693)
# measurement-description: SPR
# assay-setup: _ is abasic C3 spacer at position 16; steady state; kinetic 1.15 pM (Table 8)
readout-label: pKd
For clarity, pKd is expressed as the negative log10 of concentration in mol/L.

Which value of pKd has been reported for GGGTTTGGCACCGGGCTGGC [CELTIC_core_12] in the records? 7.01

====

# assayed-target: CD3 epsilon/gamma heterodimer (Homo sapiens) (UniProt P07766+P09693)
# measurement-description: SPR
# assay-setup: _ is abasic C3 spacer at positions 11 and 16; 5'-HEG; steady state; kinetic 277 pM (Table 8)
readout-label: pKd
For clarity, pKd is expressed as the negative log10 of concentration in mol/L.

// pKd lookup, key: GGGTTTGGCACGGGCTGGC [CELTIC_core_42] 6.71
